# Test details: Cmax in Sprague-Dawley rat at 30 mg/kg, po
# Type: ADME, organism-based
# Parameters: dose 30 mg/kg, route oral
# Experimental conditions: in vivo
Measured endpoint: Cmax (ng/mL)
Express the result in ng/mL but write the number alone.

See these solved cases before continuing.
- C#CCN(CC)C(=O)[C@@]1(c2cccs2)C[C@H]1CN: 649
- C=C(F)CN(CC)C(=O)[C@@]1(c2cccs2)C[C@H]1CN: 974

In the following, a different compound is considered.
The value of Cmax measured for the compound "NC[C@@H]1C[C@@]1(C(=O)N1Cc2ccccc2C1)c1cccs1" turned out to be 58

---

# Test details: Partition coefficient, log P of the compound
# Assay type: physicochemical
# Experimental conditions: octanol/water
Measured logP, listed per entry.

See these solved cases before continuing.
- C=CCN(CC=C)C(=O)[C@@]1(c2cccs2)C[C@H]1CN: 2
- NC[C@@H]1C[C@@]1(C(=O)N1Cc2ccccc2C1)c1cccs1: 2.2

The value of logP measured for the compound "C=C(F)CN(CC)C(=O)[C@@]1(c2cccs2)C[C@H]1CN" turned out to be 1.8
